The measured values listed here are drawn from the supplement of paper PMC6757056.

B1: library; a variant is named by its letters at N, in order (parent)
chain: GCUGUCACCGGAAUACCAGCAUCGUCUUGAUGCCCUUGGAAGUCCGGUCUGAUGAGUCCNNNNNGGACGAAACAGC

- Variants of: B1
- procedure_text: FACS-Seq fitted mean relative fluorescence mCherry/BFP with ligand (log10 relative fluorescence); ligand concentration (+) FACS-Seq: 1 mM; higher = higher reporter protein expression
- test_conditions: HEK293T, ligand present: yes
// reported FACS-Seq fitted mean (log10) per item
Give the value as a plain number.

- var: "UCAUU"
  reported_value: 0.906
- var: "UCACU"
  reported_value: 0.438
- var: "CCUCU"
  reported_value: 0.0585
- var: "AUAGA"
  reported_value: 0.972
- var: "AAGAG"
  reported_value: 0.728

Q. Please list FACS-Seq fitted mean (log10) recorded for the variant UGCCA
A. 0.481

Q. Specify reported FACS-Seq fitted mean (log10) for the variant shown: ACUGG
A. 0.915

Q. Give FACS-Seq fitted mean (log10) for CCGGU
A. 0.944

Q. Using the record for ACUGC , state its measured FACS-Seq fitted mean (log10).
A. 0.793

Q. For the variant CAAAU , give its reported FACS-Seq fitted mean (log10).
A. 0.399

Q. Specify reported FACS-Seq fitted mean (log10) for the variant shown: AAUGG
A. 0.962

Q. Recall and state the measured FACS-Seq fitted mean (log10) for CGGGC .
A. 0.717

Q. Provide only the value of recorded FACS-Seq fitted mean (log10) for CCGAA
A. 0.178

Q. For the variant UCCGG , give its reported FACS-Seq fitted mean (log10).
A. 1.02

Q. Return reported FACS-Seq fitted mean (log10). Input variant: ACCCU
A. 0.587
